Provenance of the data: paper PMC10046377

target: UniProtKB Q9UQ80; assay: Surface plasmon resonance binding to recombinant PA2G4; design: PA2G4 protein construct was ordered from GenScript (Piscataway, NJ, USA) and cloned into a pET22b vector; host or cells: BL21 (DE3) E. coli; conditions: SPR, Biacore T200, 25 °C, biotinylated PA2G4
property-label: pKd
In plain terms, pKd is the concentration in mol/L turned into minus its base-10 logarithm.

>  <structure-string>
Cc1cccc(Oc2cc(N3CCC(C(=O)NCc4cccc(Br)c4)CC3)ncn2)c1C

>  <pKd>
4.97

$$$$
>  <structure-string>
Cc1cccc(Oc2cc(N3CCC(C(=O)NCc4cccc(C(F)(F)F)c4)CC3)ncn2)c1C

>  <pKd>
4.83

$$$$

# input Notebook entry, UniProtKB Q9UQ80 assay: pKd of `Cc1cccc(Oc2cc(N3CCC(C(=O)N[C@@H](C)CCc4ccccc4)CC3)ncn2)c1C` = ?
# output 4.87

====

Parameter Kd: see the listing below.
molecular target: PA2G4 protein (Homo sapiens); assay: Surface plasmon resonance binding to recombinant PA2G4; design: PA2G4 protein construct was ordered from GenScript (Piscataway, NJ, USA) and cloned into a pET22b vector; host or cells: BL21 (DE3) E. coli; details: SPR, recombinant PA2G4
Sequence (Q9UQ80 whole entry): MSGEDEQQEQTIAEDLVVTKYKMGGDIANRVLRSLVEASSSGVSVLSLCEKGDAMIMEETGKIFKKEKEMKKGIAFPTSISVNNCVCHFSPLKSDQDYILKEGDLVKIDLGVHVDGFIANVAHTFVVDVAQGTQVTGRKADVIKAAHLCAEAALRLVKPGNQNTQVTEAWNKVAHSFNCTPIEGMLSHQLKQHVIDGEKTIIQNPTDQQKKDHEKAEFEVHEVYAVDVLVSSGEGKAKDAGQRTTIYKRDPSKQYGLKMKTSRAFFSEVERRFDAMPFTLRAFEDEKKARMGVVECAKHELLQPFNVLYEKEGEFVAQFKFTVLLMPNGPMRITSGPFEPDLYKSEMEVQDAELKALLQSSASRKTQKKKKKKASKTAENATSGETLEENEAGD

Recorded results for 2 compounds are shown here.
>  <structure-string>
Cc1cccc(Oc2cc(N3CCC(C(=O)NCc4cccc(C(F)(F)F)c4)CC3)ncn2)c1C

>  <subject-of-test>
PA2G4 protein (Homo sapiens)

>  <val>
14.9 µM

$$$$
>  <structure-string>
Cc1cccc(Oc2cc(N3CCC(C(=O)NCc4cccc(Br)c4)CC3)ncn2)c1C

>  <subject-of-test>
PA2G4 protein (Homo sapiens)

>  <val>
10.8 µM

$$$$

Consider now this further compound.
# input Which Kd value is on record for `Cc1cccc(Oc2cc(N3CCC(C(=O)N[C@@H](C)CCc4ccccc4)CC3)ncn2)c1C` ?
# output 13.5 µM

====

Tested on: Kelly cells
Test: Alamar Blue cell viability assay, Kelly
Format: cell-based
Conditions: Homo sapiens, MYCN amplified neuroblastoma cell line
Protocol: The MYCN amplified neuroblastoma cell line SK-N-BE(2)-C was kindly provided by Professor June Biedler (Memorial Sloan Kettering Cancer Centre, New York, NY, USA), and Kelly was obtained from European Collection of Cell Cultures. […] Cell viability was determined by the Alamar Blue assay (75 mg resazurin, 12.5 mg methylene blue, 164.5 mg potassium hexacyanoferrate (III), 211 mg potassium hexacyanoferrate (II) trihydrate in 500 mL of phosphate buffered saline). […]
Parameter IC50: see the listing below.
Show the value, then the unit it is measured in.

Recorded results for 2 molecules are shown here.
>  <molecule>
CN1CCN(Cc2ccc(NC(=O)Cc3ccc(Oc4cc(NC(=O)C5CC5)ncn4)cc3)cc2C(F)(F)F)CC1 [WS6, reference compound]

>  <subject-of-test>
Kelly cells

>  <val>
0.65 µM

$$$$
>  <molecule>
Cc1cccc(Oc2cc(N3CCC(C(=O)NCc4cccc(Br)c4)CC3)ncn2)c1C [#5333]

>  <subject-of-test>
Kelly cells

>  <val>
28.6 µM

$$$$

# input Notebook entry, Kelly cells assay: IC50 of Cc1cccc(Oc2cc(N3CCC(C(=O)NCc4cccc(C(F)(F)F)c4)CC3)ncn2)c1C [#3567] = ?
# output 29 µM

# input Same for Cc1cccc(Oc2cc(N3CCC(C(=O)N[C@@H](C)CCc4ccccc4)CC3)ncn2)c1C [#5338]
# output 30 µM
